B1: NF2 (merlin) isoform 7, human, full length (507 aa, lacks exons 2-3 = isoform-1 residues 39-121; exon-16 C-terminus), P35240-4 (parent)
chain: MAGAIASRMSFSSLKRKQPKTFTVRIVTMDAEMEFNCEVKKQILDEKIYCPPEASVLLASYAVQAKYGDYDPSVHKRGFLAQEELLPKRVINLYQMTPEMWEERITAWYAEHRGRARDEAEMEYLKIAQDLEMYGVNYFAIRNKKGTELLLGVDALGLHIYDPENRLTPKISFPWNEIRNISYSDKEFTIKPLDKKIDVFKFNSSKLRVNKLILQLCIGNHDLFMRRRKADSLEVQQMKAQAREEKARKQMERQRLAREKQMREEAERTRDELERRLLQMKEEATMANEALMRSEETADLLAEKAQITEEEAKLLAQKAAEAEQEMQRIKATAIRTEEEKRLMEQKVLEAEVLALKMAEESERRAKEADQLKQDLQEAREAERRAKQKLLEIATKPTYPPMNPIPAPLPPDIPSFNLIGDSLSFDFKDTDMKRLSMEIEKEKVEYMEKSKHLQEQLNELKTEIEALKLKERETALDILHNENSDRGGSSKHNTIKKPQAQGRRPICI

Variants of: B1
Assay: reverse yeast two-hybrid deep mutational scan (rY2H-seq): NF2 isoform 7 mutant library as bait mated with wild-type prey strains; selection on medium lacking adenine for non-interacting pairs; NextSeq paired-end sequencing; enrichment vs …
Details: with EMILIN1 (elastin microfibril interfacer 1), Q9Y6C2; yeast diploids after mating (RBait_S3 x RPrey_S3), 30 °C, selection for reporter genes on NB agar; human tyrosine kinase ABL2 co-expressed as the active kinase …; HIGHER = WEAKER BINDING (the opposite of display enrichments): higher = stronger loss of interaction: reverse Y2H selects yeast in which bait and prey do NOT interact (growth without adenine), so a …; hits-only table; scale: rY2H score; numbering: uniprot, sequence starts at 1
If the reported enrichment equals or exceeds 3, assign Condition met. If not, assign Condition not met.

# mutation-spec, qualitative-label
data = [
    ("E282L", "Condition met"),
    ("A240T", "Condition not met"),
    ("A381T", "Condition not met"),
    ("L348S", "Condition met"),
    ("Q324A", "Condition met"),
    ("E259T", "Condition met"),
    ("Q306E", "Condition met"),
    ("K88R", "Condition not met"),
    ("N402Q", "Condition not met"),
    ("R270L", "Condition met"),
    ("S488R", "Condition not met"),
    ("P407K", "Condition not met"),
    ("L151E", "Condition met"),
    ("T461I", "Condition not met"),
    ("R166S", "Condition met"),
    ("T106L", "Condition met"),
    ("K318A", "Condition met"),
    ("L375E", "Condition met"),
    ("I141L", "Condition met"),
    ("S489E", "Condition met"),
    ("H491A", "Condition not met"),
    ("A381M", "Condition met"),
    ("S55E", "Condition met"),
    ("I171K", "Condition not met"),
    ("K246R", "Condition not met"),
    ("A350E", "Condition met"),
    ("E323L", "Condition not met"),
    ("F415A", "Condition not met"),
    ("E339K", "Condition met"),
    ("Q261Y", "Condition not met"),
    ("L342T", "Condition met"),
    ("L300K", "Condition met"),
    ("E338A", "Condition met"),
    ("P399K", "Condition not met"),
    ("A331K", "Condition met"),
    ("Q387L", "Condition not met"),
]
